assay: NFAT Signaling Pathway (AID 444); details: Jurkat NFAT-bla M1, carbachol, beta-lactamase ratio, 5 h; at 17.2 µM (top of the series);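 also: carbachol stimulus at about its EC50 of 1 µM final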
Results filed as inconclusive are left out. The source made the active and inactive calls. Calls follow the shape of the dose curve; as a rule, active = well fitted curve in either direction with a large enough effect (not every such curve was filed as active); inconclusive = small, poorly fitted or top-dose-only effect, or another doubt; inactive = flat fitted curve, though single readings scatter.
Thanks in advance; please answer with one of these: 1 for active, 0 for inactive

What did this assay record as the result for `O=C1CCc2cc(OCCCCc3nnnn3C3CCCCC3)ccc2N1` ?
0

What did this assay record as the result for `Cc1[nH]c(=O)c(C#N)cc1-c1ccncc1` ?
0

What did this assay record as the result for `CNC[C@H](O)c1cccc(O)c1` ?
0

What did this assay record as the result for `N#Cc1ccc(C(c2ccc(C#N)cc2)n2cncn2)cc1` ?
0

What did this assay record as the result for `Cc1cnc(NC(=O)C2=C(O)c3ccccc3S(=O)(=O)N2C)s1` ?
0

What did this assay record as the result for `Cc1cc2c(C(C)C)c(O)c(O)c(C=O)c2c(O)c1-c1c(C)cc2c(C(C)C)c(O)c(O)c(C=O)c2c1O` ?
1

What did this assay record as the result for `O=c1n(CCCN2CCN(c3cccc(Cl)c3)CC2)nc2ccccn12` ?
0

What did this assay record as the result for `CCOC(=O)C1=C[C@@]2(CC)CCCN3CCc4c(n1c1ccccc41)[C@H]32` ?
0

What did this assay record as the result for `NNCCc1ccccc1` ?
0

What did this assay record as the result for `N[C@@H]1CONC1=O` ?
0

What did this assay record as the result for `Nc1ccc(S(=O)(=O)Nc2ccnn2-c2ccccc2)cc1` ?
0
